method-summary: Aqueous solubility assay (shake-flask, LC/MS/MS)
Assay type: physicochemical
test-context: aqueous buffer pH 10.63, aqueous buffer, thermodynamic from solid; pH 10.63 buffer, 25° C., 24 hours; SIS3 hydrochloride salt, MO-00005 free base; read-out: Conc. Of Sample (ug/mL), aqueous solubility
assay-readout: solubility at 24 h (µg/mL)
Output spec: scalar in µg/mL, unitless text.

Return solubility at 24 h (reported value) for this compound: COc1cc2c(cc1OC)CN(C(=O)/C=C/c1c(-c3ccccc3)nc3ccccn13)CC2
280

---

method-summary: Aqueous solubility assay (shake-flask, LC/MS/MS)
Type: physicochemical
test-context: aqueous buffer pH 4.03, aqueous buffer, thermodynamic from solid; pH 4.03 buffer, 25° C., 24 hours; SIS3 hydrochloride salt, MO-00005 free base; read-out: Conc. Of Sample (ug/mL), aqueous solubility
assay-readout: solubility at 24 h (µg/mL)
Output spec: scalar in µg/mL, unitless text.

Return solubility at 24 h (reported value) for this molecule: COc1cc2c(cc1OC)CN(C(=O)/C=C/c1c(-c3ccccc3)nc3ccccn13)CC2
598
